Recorded pKd, one value per entry.
- Target under test: human Survivin wild type (human) (UniProt O15392)
- Sequence (O15392 whole entry): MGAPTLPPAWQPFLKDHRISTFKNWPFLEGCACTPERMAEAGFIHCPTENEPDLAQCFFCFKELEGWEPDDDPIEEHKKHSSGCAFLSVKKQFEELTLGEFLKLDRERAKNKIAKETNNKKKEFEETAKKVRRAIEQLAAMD
- Assay info: ITC
Square brackets hold non-standard residues; d marks the D form. Ends that are not written are not given here. pT = C[C@@H](OP(=O)(O)O)[C@H](N)C(=O)O
Entry type: numeric. Quantity: pKd, the -log10 of concentration in molar units.

ARTK [histone H3 N-terminal peptide ARTK, unmodified] ... 4.22

Continue with the next binder.
Could you share which pKd value was measured for AR[pT]K [histone H3 N-terminal peptide ARTphK, phosphorylated on T3] ?
4.21

Source of measurements: paper PMC3327328
